Measured yeast fitness, listed per entry for reference.
B1: tRNA (parent)
chain: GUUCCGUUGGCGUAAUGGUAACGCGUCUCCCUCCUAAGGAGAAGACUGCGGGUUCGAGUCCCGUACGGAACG

Variants of: B1
PROCEDURE SUMMARY: yeast fitness relative to wild type (ratio to wild type); higher = fitter; tRNA-Arg(CCU), competitive growth, 37 C, YPD
Fewer inactive variants are shown than the library holds.
Enter a number only.

Completed entries (count: 4):
GUUCGGUUGGCGUAAUGGUAACGCGUCUCCCUCCUAAGGAGAUGACUGCGGGUUCGAGUCCCGCACGGAACG [C5G A43U U64C]; 0.703
GUUCUGUUGGCGUAAUGGUAACGUGUCUCCCUCCUAAGGAGAAGACUGCGGGUUCGAGUCCCGUACGGAACG [C5U C24U]; 0.99
GUUCCGUUGGCGUAAUGGUAACGCGUCUCCCUACUAUGGAGAAGACUGCGGGUUCGAGUCCAGUACGGAACG [C33A A37U C62A]; 0.503
GUUCCGUUGGCGUAAUGGUAACGCGUUACCCUCCUAGGGAGAAGACUGUGGGUUCGCCUCCCGUACGGAACG [C27U U28A A37G C49U A57C G58C]; 0.683

Task: Need yeast fitness of GUUCCGUUGGCGUAAUGGUAACGCGUCUCCCUCCUAAGGAGAAGACUGCGGGUUCGAGUCAUGUUCGGCACG [C61A C62U A65U A69C] , thanks.
Output: 0.52

Task: Given GUUCCGUUGGGGUAAUGGUAACGCGUCUCCCUCCUAAGCAGAAGACUGCCGGUUCGAGUCCCGUACGGAACG [C11G G39C G50C] , state its recorded yeast fitness.
Output: 0.545

Task: Returns the measured yeast fitness for the input variant. Input: GUUACGUUGGCGUAAUGGUAACGCGUCUCCCUCCCAAGGAGAAGACUCCGGGUUUAAGUCCCGUACGGAACG [C4A U35C G48C C55U G56A]
Output: 0.51

Task: I am curious: what yeast fitness value has been reported for GUUCUGUUGGCGUAAUGGUAACGCGUCUCCCUACUAAGGAGAAGACUGCGGGUUCGAGUCCCGUACGGAACG [C5U C33A] ?
Output: 0.737

Task: State the recorded yeast fitness for this entry: GUUCCAUUGGCGGAAUGGUAACGCGUUUCCCUCCUAAGGAGAAGACUGCGGGUUCGAGUCCCGUACGGAACG [G6A U13G C27U]
Output: 0.539

Task: Consider the variant shown here: GUUCUGUCGGCGUAAUGGUGACGCGUCUCACUCCUAAGGAGAAGACUGCGGGUUCGAGUCACGUACGGAACG [C5U U8C A20G C30A C61A] What is its recorded yeast fitness?
Output: 0.649

Task: Fill in the blank: the reported yeast fitness of GUUCCGUUGGCGUAAUGGUAACGCGUCUCCCUCCUAAGGAGAAGACUGCGGGUUUGAGUCUCGUACGGAACG [C55U C61U] is ____.
Output: 0.75
